Please provide measured furin cleavage Z-score for the entries that follow.
- tgt: furin, P09958
- Sequence (P09958 whole entry): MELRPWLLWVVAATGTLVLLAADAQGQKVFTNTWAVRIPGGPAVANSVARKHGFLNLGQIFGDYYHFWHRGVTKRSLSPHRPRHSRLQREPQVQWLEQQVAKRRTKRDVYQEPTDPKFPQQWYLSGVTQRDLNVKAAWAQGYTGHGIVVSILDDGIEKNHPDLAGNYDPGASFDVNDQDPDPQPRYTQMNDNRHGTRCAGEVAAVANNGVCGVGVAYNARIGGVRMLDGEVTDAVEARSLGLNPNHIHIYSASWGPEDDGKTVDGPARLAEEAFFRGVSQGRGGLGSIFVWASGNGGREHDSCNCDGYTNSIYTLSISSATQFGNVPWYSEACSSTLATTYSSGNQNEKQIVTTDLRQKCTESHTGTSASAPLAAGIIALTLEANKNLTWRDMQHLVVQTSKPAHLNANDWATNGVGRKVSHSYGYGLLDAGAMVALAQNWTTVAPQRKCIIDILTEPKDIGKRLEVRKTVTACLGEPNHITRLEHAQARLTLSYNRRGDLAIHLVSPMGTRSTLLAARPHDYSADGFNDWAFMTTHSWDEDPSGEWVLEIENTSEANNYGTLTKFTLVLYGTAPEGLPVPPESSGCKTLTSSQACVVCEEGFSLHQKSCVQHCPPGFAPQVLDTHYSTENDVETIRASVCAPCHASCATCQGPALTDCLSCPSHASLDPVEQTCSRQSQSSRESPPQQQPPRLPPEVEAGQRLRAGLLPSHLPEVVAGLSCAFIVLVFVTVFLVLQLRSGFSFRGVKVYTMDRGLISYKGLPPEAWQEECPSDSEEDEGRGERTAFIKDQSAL
- protocolSummary: furin cleavage Z-score vs untreated control; higher = more cleavage, active = 3.5 or more, inactive = 1 or less, 8 variable residues between constant flanks;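 note: purified furin at 1:10 enzyme:substrate in 50 mM HEPES pH 7.5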
- setupConditions: 30 min
Some of the results follow. No count for the full screen is at hand.
# output: bare number, no unit

Tell me the measured furin cleavage Z-score of CAPESRKRREAGNASASA [FS-368] , please.
11.3

Tell me the measured furin cleavage Z-score of CAPQLPGIPFAGNASASA [HC1161] , please.
0.14

Tell me the measured furin cleavage Z-score of CARRKRSAGAAGNASASA [FS-1779] , please.
8.77

Tell me the measured furin cleavage Z-score of CARQYRSAYYAGNASASA [FS-2591] , please.
2.18

Tell me the measured furin cleavage Z-score of CAGSKRSRREAGNASASA [FS-1207] , please.
7.54

Tell me the measured furin cleavage Z-score of CARKNRPAGAAGNASASA [FS-1729] , please.
-0.0808

Tell me the measured furin cleavage Z-score of CAIGKRSVEYAGNASASA [FS-1984] , please.
3.58

Tell me the measured furin cleavage Z-score of CARRGRSGGAAGNASASA [FS-2227] , please.
-0.877

Tell me the measured furin cleavage Z-score of CAPVVFSQMEAGNASASA [HC647] , please.
0.561

Tell me the measured furin cleavage Z-score of CAGSMRANRIAGNASASA [FS-1128] , please.
0.059

Tell me the measured furin cleavage Z-score of CAATLCSALYAGNASASA [HC295] , please.
0.385

Tell me the measured furin cleavage Z-score of CAGCVPCVREAGNASASA [HC273] , please.
1.81

Tell me the measured furin cleavage Z-score of CAGSNRKVREAGNASASA [FS-435] , please.
7.92

Tell me the measured furin cleavage Z-score of CAGQKRSRSRAGNASASA [FS-2862] , please.
0.754

Tell me the measured furin cleavage Z-score of CALLCPAGHAAGNASASA [HC745] , please.
-0.0279

The measured values listed here are drawn from the supplement of paper PMC3545927.
